All figures here come from patent US20080008745A1.

assay comment: In vitro skin diffusion study, flow-through diffusion cell, human skin
Format: in vitro ADME
condition details: human, pH 7.4, Human skin, MN; read-out: Permeability (converted)
Counter-ions that a name gives are not always drawn.
metric name: Papp at 48 h (×10⁻⁶ cm/s)
Kindly provide the numeric value in ×10⁻⁶ cm/s only, without the unit symbol.

What value of Papp at 48 h has been recorded for this entry: O=C1CC[C@@]2(O)[C@H]3Cc4ccc(O)c5c4[C@@]2(CCN3CC2CC2)[C@H]1O5 [NTX-HCl, Naltrexone Hydrochloride]
0.0194

----------
assay comment: In vitro skin diffusion study, flow-through diffusion cell, human skin
Type: in vitro ADME
condition details: human, pH 7.4, microneedle-treated human skin; read-out: Permeability Kp (estimated) (converted)
metric name: Papp at 48 h (×10⁻⁶ cm/s)
Kindly provide the numeric value in ×10⁻⁶ cm/s only, without the unit symbol.

What value of Papp at 48 h has been recorded for this entry: O=C1CC[C@@]2(O)[C@H]3Cc4ccc(O)c5c4[C@@]2(CCN3CC2CC2)[C@H]1O5 [NTX Base, Naltrexone]
0.0194
